Provenance of the data: patent US20240309087A1

Molecular target: T1, hCD112R mFC recombinant protein (human; murine, UniProt Q6DKI7 41-160)
T1 construct: range 41-160; expressed in 293E cells; also called hCD112R ECD mFC; hCD112R-ECD-mFC; not shown: murine IgG2a Fc domain (MX2-mFc vector)
T1 sequence (looked up): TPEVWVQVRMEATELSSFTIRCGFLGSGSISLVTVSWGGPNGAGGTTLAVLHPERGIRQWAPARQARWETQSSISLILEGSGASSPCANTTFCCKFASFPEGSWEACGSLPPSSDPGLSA
Assay: FACS competition, hCD112R mFc on CHO CD112 cells; IC50 COM701/IC50 antibody
Collected Relative activity (%) values appear next to each entry.
I only need the number, in %, no unit after it.

Worked examples, 4 binders total:
I have this binder here, Hu31 (antibody, IgG4, V domains shown, humanized IgG4) VH: EVQLVESGGGLVQPGGSLRLSCAASGFTFSSYHMSWVRQAPGKGLELVAAISRDGDSTYYPDTVKGRFTISRDDAENSLYLQMNSLRAEDTAVYYCSRHEDYFGFAMDSWGQGTLVTVSS VL: DIVMTQSPDSLAVSLGERATINCKASQSVTNDVAWYQQKPGQPPKLLIYYVSNHYTGVPDRFSGSGSGTDFTLTISSLQAEDVAVYFCQQAYRSPWTFGQGTKLEIK , and I need its recorded Relative activity (%). 142

Relative activity (%) for Hu25 (antibody, IgG4, V domains shown, humanized IgG4) VH: EVQLVESGGGLVQPGGSLRLSCAASGFTFSSYHMSWVRQAPGKGLELVAAISRDGDSTYYPDTVKGRFTISRDNAKNSLYLQMNSLRAEDTAVYYCSRHEDYFGFAMDSWGQGTLVTVSS VL: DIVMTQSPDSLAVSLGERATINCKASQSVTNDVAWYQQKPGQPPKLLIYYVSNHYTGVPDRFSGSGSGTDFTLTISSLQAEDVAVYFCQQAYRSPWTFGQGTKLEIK ? 97

I am curious: what Relative activity (%) value has been reported for Hu19 (antibody, IgG4, V domains shown, humanized IgG4) VH: EVQLVESGGGLVKPGGSLRLSCAASGFTFSSYHMSWVRQAPGKGLELVSAISRDGDSTYYPDTVKGRFTISRDDAENSLYLQMNSLRAEDTAVYYCSRHEDYFGFAMDSWGQGTLVTVSS VL: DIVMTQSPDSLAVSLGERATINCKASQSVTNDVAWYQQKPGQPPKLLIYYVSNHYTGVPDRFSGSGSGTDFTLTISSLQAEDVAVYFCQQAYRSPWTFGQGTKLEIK ? 144

Query: Relative activity (%); subject: Hu20 (antibody, IgG4, V domains shown, humanized IgG4) VH: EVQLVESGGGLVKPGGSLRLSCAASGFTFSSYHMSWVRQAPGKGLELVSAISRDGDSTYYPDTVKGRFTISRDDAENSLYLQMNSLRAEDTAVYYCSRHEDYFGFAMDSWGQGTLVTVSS VL: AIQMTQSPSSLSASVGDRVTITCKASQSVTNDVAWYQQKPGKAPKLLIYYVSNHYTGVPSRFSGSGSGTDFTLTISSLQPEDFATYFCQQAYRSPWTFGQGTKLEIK 159

Here is another binder to look at.
Could you share which Relative activity (%) value was measured for Hu30 (antibody, IgG4, V domains shown, humanized IgG4) VH: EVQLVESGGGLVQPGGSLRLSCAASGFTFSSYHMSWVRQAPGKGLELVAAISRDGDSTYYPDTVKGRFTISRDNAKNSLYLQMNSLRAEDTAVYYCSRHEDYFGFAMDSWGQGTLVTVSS VL: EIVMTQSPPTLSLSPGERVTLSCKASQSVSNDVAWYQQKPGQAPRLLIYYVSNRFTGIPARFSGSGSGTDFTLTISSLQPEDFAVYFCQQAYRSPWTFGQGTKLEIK ? 151
